Molecular target: human MRGPRX4-83L (Homo sapiens, UniProt Q96LA9)
Construct: host or cells: CHO β-arrestin cells
Sequence (Q96LA9 whole entry): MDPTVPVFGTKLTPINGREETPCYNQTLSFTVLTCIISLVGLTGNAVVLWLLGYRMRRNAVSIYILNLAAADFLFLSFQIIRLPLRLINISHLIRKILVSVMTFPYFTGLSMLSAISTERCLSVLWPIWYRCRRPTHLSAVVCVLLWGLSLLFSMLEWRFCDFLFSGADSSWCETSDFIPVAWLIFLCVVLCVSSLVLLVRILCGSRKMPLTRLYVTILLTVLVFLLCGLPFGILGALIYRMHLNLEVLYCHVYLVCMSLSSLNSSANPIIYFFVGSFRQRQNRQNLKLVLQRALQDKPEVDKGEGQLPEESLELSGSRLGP
Experiment: β-arrestin assay (CHO β-arrestin ARMS1-ProLink 2 human MRGPRX4 83L)
Assay type: cell-based
Conditions: Table 1; β-arrestin recruitment, CHO cells, MRGPRX4-83L; means of 3-4 experiments; read-out: EC50 ± SEM
Recorded Metric: EC50 (µM)

C#CCn1c(=O)c2c(nc(CCc3cccc(OC)c3)n2C)n(CCCCP(=O)(O)O)c1=O = 6.28
C#CCn1c(=O)c2[nH]c(CCc3cccc(OC)c3)nc2n(CCCCP(=O)(O)O)c1=O = 5.71
C#CCn1c(=O)c2[nH]c(CCc3cccc(F)c3)nc2n(CCCCP(=O)(O)O)c1=O = 7.94
C#CCn1c(=O)c2[nH]c(CCc3ccccc3Br)nc2n(CCCCP(=O)(O)O)c1=O = 0.243

a = COc1cccc(CCc2nc3c([nH]2)c(=O)n(CC2CCC2)c(=O)n3CCCCP(=O)(O)O)c1
b = C#CCn1c(=O)c2[nH]c(CCc3cccc(C)c3)nc2n(CCCCP(=O)(O)O)c1=O
## Input Between a and b , whose recorded EC50 is greater? Identify your pick by its label.
## Output a
